Test system: HaCat
measurement.notes: Cytotoxic Profiling of Annotated Libraries Using Quantitative High-Throughput Screening (AID 1296008); further: on the % scale 0 is the no-effect control and ±100 the full control effect
assay.conditions: Five cell lines viability, CellTiter-Glo ATP luminescence, 48-72 h; stronger effect = lower value
Inconclusive results are not listed.
Items are presented alongside their recorded max response.
assay.readout: max response (%)

compound	measurement.target	measured
CC1CCC(n2c3cnccc3c3cnc(Nc4ccc5c(n4)CCN(C(=O)CO)C5)nc32)CC1 (stereo not drawn)	HaCat	-0.578
CC(C)CCC[C@@H](C)[C@H]1CC[C@H]2[C@@H]3CC=C4C[C@@H](OC(=O)NCCN(C)C)CC[C@]4(C)[C@H]3CC[C@]12C	HaCat	-22.1
O=C(NNc1ccccc1)c1ccncc1	HaCat	-7.12
CC1(C)CC23[C@@H]4CC(=O)[C@@H]2COC(=O)[C@@H]3CC[C@H]41	HaCat	-1.08
CC(C)N(CCCNC(=O)Nc1ccc(C(C)(C)C)cc1)C[C@H]1O[C@@H](n2cc(Br)c3c(N)ncnc32)[C@H](O)[C@@H]1O	HaCat	-3.75
CCOC(=O)c1cccc(CNc2ccc(N(C)C(=O)Nc3ccccc3)cc2)c1	HaCat	-23.2
CC(=O)N[C@@H](CC(=O)O)C(=O)N[C@@H](CCC(=O)O)C(=O)N[C@H](C(=O)N[C@@H](CC(=O)O)C(=O)Nc1ccc2c(C)cc(=O)oc2c1)C(C)C	HaCat	-44.8
CC1CCN(C(c2ccc(F)cc2)c2ccc(C(C)C(=O)O)cc2-c2ccc(C(F)(F)F)cc2)CC1 (stereo not drawn)	HaCat	1.13
